# System: SNB-78 CNS
# test.protocol: NCI tumour cell line growth inhibition, 48 h
measured.endpoint: TGI

Solved entries (count: 2):
molecule	TGI
NC(N)=Nc1nc2ccccc2[nH]1	> 150 µg/mL
CN(C)/C(N)=N/C(N)=S	> 100 µM

Next item in the queue.
Prompt: Give the reported TGI for CC(Oc1ccc2cc(C(=O)c3ccccc3)c(=O)oc2c1)C(=O)O (stereo not drawn) (system: SNB-78 CNS).
Response: > 100 µM

----------
# Test system: OVCAR-4 ovarian
# test.protocol: NCI tumour cell line growth inhibition, 48 h
*1 amine or outer side, *2 acyl side, *3 side chain or, on linkers, in order; H or OH if unused. Where a SMILES comes first, the peptide text is derived from it. Bridges are numbered along the chain shown (N, C = ends). [ ]: non-standard residue; d: D form. The star is where a group is joined. Phe(3-Me) = Cc1cccc(C[C@H](N)C(=O)O)c1; NH(4-Cl-2-F-phenyl) = Fc1cc(Cl)ccc1N*; Pro(4R-Me) = C[C@H]1CN[C@H](C(=O)O)C1; Propanoyl(3-NMe2) = CN(C)CCC(=O)*; Hyp = O=C(O)[C@@H]1C[C@@H](O)CN1; aThr = C[C@H](O)[C@H](N)C(=O)O; Pip = O=C(O)[C@@H]1CCCCN1; CO = O=C([*:1])[*:2]
measured.endpoint: TGI

Solved entries (count: 5):
compound	result
C=C(C(=O)O)[C@@H]1C[C@@H]2O[C@H]1CC(C)=CCC/C(C)=C/CC[C@@]2(C)O	> 100 µM
O=C1OC(c2ccccc2)N/C1=C\c1ccc2c(c1)OCO2 (centres undefined)	> 88 µM
Cc1cc(N=Nc2ccc(N=Nc3c(O)c(S(=O)(=O)O)cc4cc(S(=O)(=O)O)ccc34)cc2C)ccc1N=Nc1ccc2cc(S(=O)(=O)O)cc(S(=O)(=O)O)c2c1	> 100 µM
O=C(CSc1nnc(-c2ccc(N=Cc3ccc(Cl)cc3)cc2)o1)Nc1cccc(Cl)c1	> 100 µM
Cc1cc(C#N)c(Nc2c(C)cccc2[N+](=O)[O-])s1	> 100 µM

Prompt: Using the record for COc1ccc(CNc2nc(NCc3ccc(OC)cc3)c3n[nH]c(C(C)C)c3n2)cc1 , report its TGI.
Response: 17.5 µM

Prompt: Using the record for CC(C)Oc1ccc(C(=O)N[C@H](CNC(=O)CN(C)C)Cc2ccc(-c3cn4cccc([C@H](C)O)c4n3)cc2)cc1Cl , report its TGI.
Response: 18.7 µM

Prompt: Using the record for CCSc1nc2n(c(=S)n1)CCN2C , report its TGI.
Response: 44.5 µM

Prompt: Using the record for Cc1cccc(C[C@H](NC(=O)Nc2ccc(Cl)cc2F)C(=O)N[C@@H]2C(=O)N3C[C@H](OC(=O)CCN(C)C)C[C@H]3C(=O)N3CCCC[C@H]3C(=O)N[C@@H](C)C(=O)N3C[C@H](C)C[C@H]3C(=O)O[C@H]2C)c1 ({NH(4-Cl-2-F-phenyl)-CO}-[Phe(3-Me)][aThr][Hyp](Propanoyl(3-NMe2))[Pip]A[Pro(4R-Me)]; ester 2-C) , report its TGI.
Response: 2.06 µM

Prompt: Using the record for CN1CCCN(C(c2ccccc2)c2ccc(Br)cc2)CC1 (centres undefined) , report its TGI.
Response: 20.5 µM

Prompt: Using the record for CC1(C)OC(=O)C(=C2CC(c3ccccc3)c3ccccc32)C(=O)O1 (centres undefined) , report its TGI.
Response: > 100 µM

Prompt: Using the record for CCc1n[nH]c(=O)n1NC(=O)/C=C\C(=O)O , report its TGI.
Response: > 100 µM

Prompt: Using the record for O=C(CN1CCN(c2ccc(Cl)cc2)CC1)N1CCN(c2nnc(-c3ccccc3)c(-c3ccccc3)n2)CC1 , report its TGI.
Response: > 100 µM

Prompt: Using the record for COc1ccc(Cn2c(Br)c3c(c2-c2cc(OC)c(OC)c(OC)c2)CCc2sc(NC(C)=O)nc2-3)cc1 , report its TGI.
Response: > 100 µM

Prompt: Using the record for CN(C)/C=N/S(=O)(=O)c1nn2c(C=O)c(-c3ccc(-c4ccc([N+](=O)[O-])cc4)o3)nc2s1 , report its TGI.
Response: > 39.3 µM

Prompt: Using the record for CCOC1SC(SC)=NN1C(=O)C(OC(C)=O)C(OC(C)=O)C(OC(C)=O)C(OC(C)=O)C(=O)N1N=C(SC)SC1OCC (centres undefined) , report its TGI.
Response: > 100 µM

Prompt: Using the record for CC1=NN(C(=O)Cc2ccccc2)C(=O)/C1=C\c1ccco1 , report its TGI.
Response: > 100 µM

Prompt: Using the record for O=C(/C=C/c1cccnc1)c1ccccc1O , report its TGI.
Response: > 100 µM

Prompt: Using the record for CCN(CC(COc1ccc2c(c1)[n+]([O-])nc(N)[n+]2[O-])OC(C)=O)C(C)=O (centres undefined) , report its TGI.
Response: > 100 µM

----------
# Tested on: SF-539 CNS
# test.protocol: NCI tumour cell line growth inhibition, 48 h
measured.endpoint: TGI

compound	measured.endpoint	result
NC(N)=Nc1nc2ccccc2[nH]1	TGI	> 150 µg/mL
CC1(C)O[C@@H]2[C@@H]3OC(=O)C[C@@H]3[C@@H](COCc3ccccc3)[C@@H]2O1	TGI	> 100 µM

Next item in the queue.
Prompt: Give the reported TGI for O=C(O)C(F)(OC(F)(F)C(F)(OC(F)(F)C(F)(F)C(F)(F)F)C(F)(F)F)C(F)(F)F (stereo not drawn) (system: SF-539 CNS).
Response: > 100 µM

----------
# System: MOLT-4 leukemia
# test.protocol: NCI tumour cell line growth inhibition, 48 h
*1 amine or outer side, *2 acyl side, *3 side chain or, on linkers, in order; H or OH if unused. Where a SMILES comes first, the peptide text is derived from it. Bridges are numbered along the chain shown (N, C = ends). [ ]: non-standard residue; d: D form. The star is where a group is joined. Phe(3-Me) = Cc1cccc(C[C@H](N)C(=O)O)c1; NH(4-Cl-2-F-phenyl) = Fc1cc(Cl)ccc1N*; Pro(4R-Me) = C[C@H]1CN[C@H](C(=O)O)C1; Propanoyl(3-NMe2) = CN(C)CCC(=O)*; Hyp = O=C(O)[C@@H]1C[C@@H](O)CN1; aThr = C[C@H](O)[C@H](N)C(=O)O; Pip = O=C(O)[C@@H]1CCCCN1; CO = O=C([*:1])[*:2]
measured.endpoint: GI50

Solved entries (count: 5):
molecule	study.system	measured.endpoint	result
CCc1ccc(Nc2cc(C)nc3nc(C)nn23)cc1	MOLT-4 leukemia	GI50	33.3 µM
N=c1ccn2c(n1)O[C@@H]1[C@@H](O)[C@H](CO)O[C@@H]12	MOLT-4 leukemia	GI50	0.161 µM
O=C(CN1CCN(c2ccc(Cl)cc2)CC1)N1CCN(c2nnc(-c3ccccc3)c(-c3ccccc3)n2)CC1	MOLT-4 leukemia	GI50	2.41 µM
Cc1cccc(C[C@H](NC(=O)Nc2ccc(Cl)cc2F)C(=O)N[C@@H]2C(=O)N3C[C@H](OC(=O)CCN(C)C)C[C@H]3C(=O)N3CCCC[C@H]3C(=O)N[C@@H](C)C(=O)N3C[C@H](C)C[C@H]3C(=O)O[C@H]2C)c1 ({NH(4-Cl-2-F-phenyl)-CO}-[Phe(3-Me)][aThr][Hyp](Propanoyl(3-NMe2))[Pip]A[Pro(4R-Me)]; ester 2-C)	MOLT-4 leukemia	GI50	0.811 µM
C/C(=N\NC(=O)c1ccncc1)c1ccc(O)cc1O	MOLT-4 leukemia	GI50	4.14 µM

Prompt: Give the reported GI50 for COc1cc(C2C(C#N)=C(N)Oc3cc(O)ccc32)cc(OC)c1OC (configuration not stated) (system: MOLT-4 leukemia).
Response: 0.584 µM

Prompt: Give the reported GI50 for O=C([O-])c1ccccc1Nc1ccccc1[O-].[Ni+3].[OH3+].[OH3+].[OH3+] (system: MOLT-4 leukemia).
Response: > 100 µM

----------
# Test system: DLD-1 colon
# test.protocol: NCI tumour cell line growth inhibition, 48 h
measured.endpoint: TGI

molecule	study.system	TGI
Cc1cc(N=Nc2ccc(N=Nc3c(O)c(S(=O)(=O)O)cc4cc(S(=O)(=O)O)ccc34)cc2C)ccc1N=Nc1ccc2cc(S(=O)(=O)O)cc(S(=O)(=O)O)c2c1	DLD-1 colon	> 100 µM
COc1ccc(C(=O)O)c(Cc2ccc3ccccc3c2)c1	DLD-1 colon	> 100 µM
CC(C)CC(=O)NS(=O)(=O)c1ccccc1	DLD-1 colon	> 100 µM
NC(N)=Nc1nc2ccccc2[nH]1	DLD-1 colon	> 150 µg/mL
CC(=O)NC(CCCCNC(=O)N(C)N=O)C(=O)NCc1ccccc1 (centres undefined)	DLD-1 colon	> 100 µM
COc1ccc(/C(C)=N/NC(N)=S)c(OC)c1	DLD-1 colon	> 100 µM
COc1ccc(C#CCC(OC2OC(CO)C(O)C(O)C2O)C(O)c2ccc(OC)c(OC)c2)cc1OC (centres undefined)	DLD-1 colon	> 100 µM
Cc1cccc(NC(=O)CC#N)c1Cl	DLD-1 colon	> 100 µM

Next item in the queue.
Prompt: Using the record for N#Cc1c2nc3ccccc3nc2n2ccc3ccccc3c12 , report its TGI.
Response: > 100 µM
